percentage of cells within gate: recorded values
Target: T1, CD4 cell surface receptor molecule on peripheral blood mononuclear cells (PBMCs) (human, UniProt P01730 26-458)
T1 construct: whole, on cells; also called CD4 receptor molecule
Assay: flow cytometry, PBMCs, live CD3+ T cells; column 'Fab multimer -> D-biotin -> Fab multimer': second Fab-multimer staining after D-biotin and washing
Hi! Could you send only the number? It should be in %, unit omitted.

See these solved cases before continuing.
>>> obs_value("Mutant 13B8.2 Fab fragment with Phe at position 100 of the heavy chain mutated to Ala, heavy chain fused to One-STrEP-tag (Fab, V domains shown, also called CD4 mutant 1 (F100A); F100K-H) VH: QVQLKQSGPGLVQPSQSLSITCTVSGFSLTTFGVHWVRQSPGKGLEWLGVIWRSGITDYNVPFMSRLSITKDNSKSQVFFKLNSLQPDDTAIYYCAKNDPGTGAAYWGQGTLVTVSA VL: DIQMTQSPASLSASVGETVTFTCRASEMIYSYLAWYQQKQGKSPQLLVHDAKTLAEGVPSRFSGGGSGTQFSLKINTLQPEDFGTYYCQHHYGNPPTFGGGTKLEIKR")
19.2
>>> obs_value("13B8.2 Fab fragment (variable domains of murine anti-CD4 antibody 13B8.2, human CH1 gamma1 and human kappa constant domains), heavy chain fused to One-STrEP-tag (Fab, V domains shown, Expressed in the E. coli periplasm; Stained as a monomer or multimerized on Strep-Tactin PE; also called CD4 wt (13B8.2); 13B8.2 wildtype (wt) Fab fragment) VH: QVQLKQSGPGLVQPSQSLSITCTVSGFSLTTFGVHWVRQSPGKGLEWLGVIWRSGITDYNVPFMSRLSITKDNSKSQVFFKLNSLQPDDTAIYYCAKNDPGTGFAYWGQGTLVTVSA VL: DIQMTQSPASLSASVGETVTFTCRASEMIYSYLAWYQQKQGKSPQLLVHDAKTLAEGVPSRFSGGGSGTQFSLKINTLQPEDFGTYYCQHHYGNPPTFGGGTKLEIKR")
18.8

Prompt: Which percentage of cells within gate is reported for this binder? Mutant 13B8.2 Fab fragment with His at position 91 of the light chain mutated to Ala, heavy chain fused to One-STrEP-tag (Fab, V domains shown, also called CD4 mutant 4 (H91A); mutant 4) VH: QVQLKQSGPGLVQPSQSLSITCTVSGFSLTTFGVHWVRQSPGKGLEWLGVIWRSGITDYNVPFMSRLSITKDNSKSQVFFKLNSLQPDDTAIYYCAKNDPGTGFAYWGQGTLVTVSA VL: DIQMTQSPASLSASVGETVTFTCRASEMIYSYLAWYQQKQGKSPQLLVHDAKTLAEGVPSRFSGGGSGTQFSLKINTLQPEDFGTYYCQHAYGNPPTFGGGTKLEIKR
Response: 20

Origin of values: patent US9023604
